The reader will find reported solubility kinetic values listed item by item below.
- run_parameters: buffer; pH 7.4; 200.0 µM

compound	solubility kinetic
CCSc1nnc(NC(=O)CN2C(=O)NC3(CCCC3)C2=O)s1	> 53.3 µg/mL
Cc1ccccc1C(=O)NCC(=O)N1CCN(c2ccccn2)CC1	> 50.8 µg/mL
Cl.O=C(OCCN1CCCCC1)C1(c2ccccc2)CCCC1	> 50.7 µg/mL
Cc1c(NC(=O)CSCc2ccc(Cl)cc2Cl)cccc1C(=O)O	> 57.6 µg/mL
O=C1CS/C(=N\NC(=O)c2ccccc2)N1	> 35.3 µg/mL
CCNC(=O)CCSc1nc(C)cc(C)n1	> 35.9 µg/mL
S=c1[nH]c2cc(Cl)c3cccnc3c2o1	> 35.5 µg/mL
CCCc1cc(=O)[nH]c(SCC(=O)N2CCCCCC2)n1	> 46.4 µg/mL
Cc1nnc(SCC(=O)NC(=O)NC(C)C)s1	> 41.2 µg/mL
S=C(NCc1ccc(Cl)cc1)Nc1ccncc1	> 41.7 µg/mL
Cc1ccc(S(=O)(=O)NCCSc2ncccn2)cc1	> 46.4 µg/mL
NC(=O)C1CCN(CC(=O)NC(=O)NC2CCCC2)CC1	> 44.5 µg/mL
Nc1nnc(SCc2c(F)cccc2Cl)s1	> 41.4 µg/mL
O=C(/C=C/c1ccccc1)N(Cc1cccc(Cl)c1)C1CCS(=O)(=O)C1 (centres undefined)	14.1 µg/mL
COc1ccccc1C1CCN(C(=O)c2ccc(Cl)cc2)CC1	17 µg/mL
Cc1c(C(=O)OCC(=O)N2CCCCC2C)oc2ccccc12 (centres undefined)	> 47.3 µg/mL
FC(F)(F)c1cccc(NC2=NCCCS2)c1	33.7 µg/mL
NC(=O)C(Cc1ccccc1)NC(=O)C12CC3CC(CC(C3)C1)C2 (centres undefined)	48.1 µg/mL
Cc1cc(F)ccc1NC(=O)Nc1ccc2c(c1)OCO2	< 0.3 µg/mL
Cn1c(Nc2cccc(Cl)c2)nc2ccccc21	5.5 µg/mL
O=c1[nH]c(=S)n(C2CC2)c(O)c1C=NCc1ccc(F)cc1	0.9 µg/mL
Cc1ccccc1OCCCCCCN1CCNCC1.O=C(O)C(=O)O	49.5 µg/mL
CC(NC(=O)c1ccc(F)cc1F)C1CC2CCC1C2 (centres undefined)	12.7 µg/mL
CNC(=S)N1CCn2cccc2C1c1cccnc1 (centres undefined)	40.8 µg/mL
O=C1NC(=O)/C(=C/c2cc3c(cc2Br)OCO3)S1	> 49.2 µg/mL
N#CCSc1ncnc2ccccc12	28.1 µg/mL
CC(C)(C)c1ccc(C(=O)NC(=S)N2CCCC2)cc1	7.2 µg/mL
Nc1nc(Cl)cc(N2CCCC2)n1	> 29.8 µg/mL
Cc1[nH]c2ccc(C(=O)NCCN3CCCCCC3)cc2c1C	> 47 µg/mL

* * *

- run_parameters: buffer; pH 7.4; 200.0 µM
Please enter Y where solubility kinetic is greater than or equal to 3 µg/mL, and N where it is lower.

compound	assigned_category
COCC(C)NC(=O)COCc1cc(-c2ccc3c(c2)OCO3)on1 (stereo not given)	Y
COc1cc(C2NC(=O)c3ccccc3O2)ccc1OC(C)C (stereo not given)	Y
Cc1cccc(NC(=O)c2cc(C)nc3ccccc23)c1	N
CC(=O)c1sc(NC(=O)c2ccc(F)cc2)nc1-c1ccccc1	N
CN(c1ccccc1)S(=O)(=O)c1ccc(-c2ccccc2)cc1	N
O=c1[nH]c2ccccc2nc1-c1ccc(Cl)cc1	N
O=C(c1ccc(F)cc1)N1CCCC(C(=O)N2CCCCC2)C1 (stereo not given)	Y
COCC(=O)Nc1ccc(N2CCOCC2)c(S(=O)(=O)Nc2ccccc2OC)c1	Y
COc1ccc(C2=CSC3=NCCN23)cc1[N+](=O)[O-]	Y
